Where these numbers come from: patent US20230382925A1

Biological target: CFTR (Homo sapiens, UniProt P13569)
Sequence (P13569 with tags, fused parts or gaps DEL508-508): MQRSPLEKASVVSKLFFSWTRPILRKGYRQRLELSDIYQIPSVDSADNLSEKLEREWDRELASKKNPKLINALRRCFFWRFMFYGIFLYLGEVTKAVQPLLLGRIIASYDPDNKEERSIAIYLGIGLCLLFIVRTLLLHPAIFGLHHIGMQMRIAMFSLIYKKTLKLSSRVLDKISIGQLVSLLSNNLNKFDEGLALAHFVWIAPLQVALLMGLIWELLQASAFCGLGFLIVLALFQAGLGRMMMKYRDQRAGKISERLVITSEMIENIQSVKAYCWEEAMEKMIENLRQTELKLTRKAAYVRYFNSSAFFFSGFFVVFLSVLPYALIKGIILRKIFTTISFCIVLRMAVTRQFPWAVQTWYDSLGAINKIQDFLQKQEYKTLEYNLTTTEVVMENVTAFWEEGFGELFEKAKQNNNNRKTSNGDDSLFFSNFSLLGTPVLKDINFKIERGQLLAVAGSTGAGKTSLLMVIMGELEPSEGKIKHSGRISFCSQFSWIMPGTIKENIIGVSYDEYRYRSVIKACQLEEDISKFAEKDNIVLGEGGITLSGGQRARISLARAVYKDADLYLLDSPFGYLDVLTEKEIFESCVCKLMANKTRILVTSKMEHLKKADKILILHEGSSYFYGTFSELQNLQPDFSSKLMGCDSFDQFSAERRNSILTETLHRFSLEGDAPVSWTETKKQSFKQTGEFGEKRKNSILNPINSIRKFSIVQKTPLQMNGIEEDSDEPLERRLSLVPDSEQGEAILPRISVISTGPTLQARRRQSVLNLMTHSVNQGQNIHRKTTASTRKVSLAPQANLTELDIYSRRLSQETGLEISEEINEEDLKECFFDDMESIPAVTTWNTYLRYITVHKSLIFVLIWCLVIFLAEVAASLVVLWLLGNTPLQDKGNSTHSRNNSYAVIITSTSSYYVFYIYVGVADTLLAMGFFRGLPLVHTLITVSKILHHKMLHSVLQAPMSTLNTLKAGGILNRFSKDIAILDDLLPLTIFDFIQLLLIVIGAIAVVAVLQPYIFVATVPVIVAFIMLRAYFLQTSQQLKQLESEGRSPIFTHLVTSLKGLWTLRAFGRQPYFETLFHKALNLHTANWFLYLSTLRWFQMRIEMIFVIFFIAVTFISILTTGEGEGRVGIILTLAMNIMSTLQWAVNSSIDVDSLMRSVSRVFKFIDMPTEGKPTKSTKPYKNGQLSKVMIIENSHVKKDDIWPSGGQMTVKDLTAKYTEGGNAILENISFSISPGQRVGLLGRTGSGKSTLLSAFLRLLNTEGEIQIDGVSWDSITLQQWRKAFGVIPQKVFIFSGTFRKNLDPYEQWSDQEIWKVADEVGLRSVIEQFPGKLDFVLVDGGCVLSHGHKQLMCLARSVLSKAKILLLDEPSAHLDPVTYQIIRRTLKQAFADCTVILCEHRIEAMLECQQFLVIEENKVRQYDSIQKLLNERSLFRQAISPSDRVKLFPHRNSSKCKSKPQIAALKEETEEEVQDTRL
Assay: Membrane Potential Dye, Enteroid Assay A
Assay type: cell-based
Protocol: Base medium (ADF+++) consisted of Advanced […], 2 mM Glutamax, 10 mM HEPES, 1 μg/mL penicillin/streptomycin. […] Enteroid cells were incubated with test compound in IEMM for 18-24 hours at 37° C., 95% humidity and 5% CO2. […] Chloride transport was initiated by addition of Chloride Free Dye Stimulation Solution and the fluorescence signal was read for 15 min. […]
measured quantity: Ent. A Max Activity (%)

{"columns": ["compound", "Ent. A Max Activity (%)"],
 "data": [
  ["CC(C)C[C@@H]1COc2cc(-c3ccccc3C(C)C)nc(n2)NS(=O)(=O)c2cccc(c2)C(=O)N1C1CC2(CCN(C)CC2)C1", "+++ (+++ is >60%)"],
  ["COC(=O)N1CCC2(CC1)CC(N1C[C@@H](C)Oc3cc(-c4c(C)cccc4C)nc(n3)NS(=O)(=O)c3cccc(c3)C1=O)C2", "+++ (+++ is >60%)"],
  ["Cc1cccc(C)c1-c1cc2nc(n1)NS(=O)(=O)c1cccc(c1)C(=O)N(C1CC3(CCNCC3)C1)[C@H](CC(C)C)CO2", "+++ (+++ is >60%)"],
  ["Cc1cccc(C)c1-c1cc2nc(n1)NS(=O)(=O)c1cccc(c1)C(=O)N(C1CC(C(=O)N3CCN(C)CC3)C1)[C@H](CC(C)C)CO2 (stereo partly drawn)", "+++ (+++ is >60%)"],
  ["Cc1cccc(C)c1-c1cc2nc(n1)NS(=O)(=O)c1cccc(c1)C(=O)N(C1CCC(C)(C)C1)[C@H](CC(C)C)CO2 (stereo partly drawn)", "+++ (+++ is >60%)"],
  ["Cc1cccc(C)c1-c1cc2nc(n1)NS(=O)(=O)c1cccc(c1)C(=O)N([C@H]1CC3(C[C@@H](CO)C3)C1)[C@H](CC(C)C)CO2 (stereo partly drawn)", "+++ (+++ is >60%)"]
]}

Then this compound:
Problem: Quick one: Ent. A Max Activity (%) for Cc1cccc(C)c1-c1cc2nc(n1)NS(=O)(=O)c1cccc(c1)C(=O)N(C1CN(C(=O)OC(C)(C)C)C1)[C@H](CC(C)C)CO2 ?
Result: +++ (+++ is >60%)

###

Biological target: CFTR (Homo sapiens, UniProt P13569)
Assay: Membrane Potential Dye, Enteroid Assay A
Assay type: cell-based
measured quantity: Ent. A Max Activity (%)

{"columns": ["compound", "recorded measurement"],
 "data": [
  ["CC(C)C[C@@H]1COc2cc(-c3ccccc3-c3ccccc3)nc(n2)NS(=O)(=O)c2cccc(c2)C(=O)N1C1CC2(CCN(C)CC2)C1", "+++ (+++ is >60%)"],
  ["Cc1cccc(C)c1-c1cc2nc(n1)NS(=O)(=O)c1cccc(c1)C(=O)N([C@H]1C[C@@H](OCc3ccccc3)C1)[C@H](CC(C)C)CO2 (single isomer, unassigned)", "++ (++ is 30-60%)"],
  ["CC(=O)N1CCC2(CC1)CC(N1C(=O)c3cccc(c3)S(=O)(=O)Nc3nc(cc(-c4c(C)cccc4C)n3)OC[C@H]1CC(C)C)C2", "+++ (+++ is >60%)"],
  ["Cc1cccc(C)c1-c1cc2nc(n1)NS(=O)(=O)c1cccc(c1)C(=O)N(C1CCC1)[C@H](CC(C)C)CO2", "++ (++ is 30-60%)"],
  ["Cc1cccc(C)c1-c1cc2nc(n1)NS(=O)(=O)c1cccc(c1)C(=O)N(C1CN(C(C)C)C1)[C@H](CC(C)C)CO2", "+++ (+++ is >60%)"]
]}

Next, consider the following compound.
Problem: Consider the compound shown here: Cc1cccc(C)c1-c1cc2nc(n1)NS(=O)(=O)c1cccc(c1)C(=O)N(C1CC3(CCN(C)CC3)C1)CC(CC(C)C)(CC(C)C)CO2 (stereo not drawn) What is its recorded Ent. A Max Activity (%)?
Result: +++ (+++ is >60%)
